Molecular target: T1, recombinant cynomolgus CLL-1 extracellular domain (ECD, amino acids 65-265) fused to an N-terminal Flag (cynomolgus monkey)
T1 construct: Construct stated for the immunogen; also called CynoCLL-1 Flag; cynoCLL-1
T1 chain: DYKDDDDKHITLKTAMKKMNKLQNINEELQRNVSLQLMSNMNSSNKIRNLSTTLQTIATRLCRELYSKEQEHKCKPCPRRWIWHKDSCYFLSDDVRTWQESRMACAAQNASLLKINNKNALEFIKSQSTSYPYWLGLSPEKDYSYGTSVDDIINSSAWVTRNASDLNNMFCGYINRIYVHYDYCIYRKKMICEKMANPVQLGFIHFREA
Experiment: affinity column of the TDB summary table (rounded Biacore KD of the second the 8th table / the 4th table tables)
pKd: −log10 of the molar value.

Binder	pKd
ch20B1 (antibody, V domains shown, chimeric version of m20B1, human IgG; also called chimeric 20B1; 2061 [sic]) VH: EVQLQQSGPELVKPGALVKISCKASGYTFTSYDINWLKQRPGQGLEWIGWIYPGDGTTEYNERFKGKATLTADKSSSTAYLQLSSLTSENSAVYFCARSYDYDYAMDYWGQGTSVTVSS VL: DIVLTQSPAIMSASPGEKVTMTCSASSSISYMYWYQQKPGTSPKRWIYDTSKLASGVPARFSGSGSGTSYSLTISSMEAEDAATYYCHQRSSWTFGGGTKLEIK	8.21
6E7.L4H1e (antibody, V domains shown, humanized, assessed in the form of an IgG; also called humanized 6E7.L4H1e; h6E7) VH: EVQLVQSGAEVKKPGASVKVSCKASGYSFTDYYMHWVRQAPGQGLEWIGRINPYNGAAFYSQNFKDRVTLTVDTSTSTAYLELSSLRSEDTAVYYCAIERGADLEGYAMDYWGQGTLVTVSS VL: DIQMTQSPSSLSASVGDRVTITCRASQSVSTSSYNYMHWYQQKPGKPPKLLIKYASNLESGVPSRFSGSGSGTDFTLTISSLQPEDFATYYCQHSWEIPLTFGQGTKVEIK	8.66
6E7.L4H1eD54 (antibody, V domains shown, IgG; also called h6E7D; H6E7.L4H1D54) VH: EVQLVQSGAEVKKPGASVKVSCKASGYSFTDYYMHWVRQAPGQGLEWIGRINPYDGAAFYSQNFKDRVTLTVDTSTSTAYLELSSLRSEDTAVYYCAIERGADLEGYAMDYWGQGTLVTVSS VL: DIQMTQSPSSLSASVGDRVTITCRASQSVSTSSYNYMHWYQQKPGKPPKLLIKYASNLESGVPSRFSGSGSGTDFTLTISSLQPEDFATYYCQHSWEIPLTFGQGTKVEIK	7.31
ch28H12 (antibody, V domains shown, chimeric version of m28H12, human IgG; also called chimeric 28H12) VH: QVQLQQSGAELVKPGASVKLSCTASGFNIKDTYMHWVKQRPEQGLEWIGRIDPANGDTDYDPKFQGKATVTADTSSNTAYLQLSSLTSEDTAVYYCTISGPPYYVMDYWGQGTSVTVSS VL: DIQMTQSPASLAVSLGQRATISCRASQSVSSSSYSYMHWYQQKPGQPPKLLIKYASNLESGVPARFSGRGSGTDFTLNIHPVEEEDTATYYCQHSWEIPYTFGGGTRLEIK	9.52
